Hey, just so you know, these numbers are from patent US20180291081A1.

Target: T1, PD-1 molecule (refolded, purified and biotinylated PD-1 of Example 2) (UniProt Q15116 33-150, biotinylated with BirA enzyme (site not stated))
T1 construct: also called Programmed Death-1
T1 sequence (Q15116 33-150 limits assumed): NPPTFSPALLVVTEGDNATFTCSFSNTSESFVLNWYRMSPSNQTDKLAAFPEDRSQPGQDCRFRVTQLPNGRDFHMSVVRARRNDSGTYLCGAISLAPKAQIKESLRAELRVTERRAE
Assay: SPR (BIAcore T200), single-cycle kinetics; biotinylated PD-1 captured via streptavidin, PDL-1 variant in solution
Description: The anti-streptavidin antibody (GenScript) was added to the coupling buffer (10 mM sodium acetate buffer, pH 4.77). The antibody was then flowed through a CMS chip previously activated with EDC and NHS to immobilize the antibody on the chip surface. Finally, the unreacted activation surface was blocked with a solution of ethanolamine hydrochloride to complete the coupling process. […]

- binder: "high affinity PDL-1 molecule L2A6 (ligand) FTVTVPKDLYVVEYGSNMTIECKFPVEKQLDLAALQVHWFMEDKNIASFVHGEEDLKVQHSSYRQRARLLKDQLSLGNAALQITDVKLQDAGVYRCMISYGGADYKRITVKVNAPYNKINQRIRVVDPVTSEHELTCQAEGYPKAEVIWTSSDHQVLSGKTTTTNSKREEKLFNVTSTLRINTTTNEIFYCTFRRLDPEENHTAELVIPEL"
  unit.annotation: "s⁻¹"
  koff: 0.0458
- binder: "high affinity PDL-1 molecule L3B3C (ligand) WTVTVPKDLYVVEYGSNMTIECKFPVEKQLDLAALQVFWMMEDKNIVSFVHGEEDLKVQHSSYRQRARLLKDQLSLGNAALQITDVKLQDAGVYVCLIAYKGADYKRITVKVNAPYNKINQRILVVDPVTSEHELTCQAEGYPKAEVIWTSSDHQVLSGKTTTTNSKREEKLFNVTSTLRINTTTNEIFYCTFRRLDPEENHTAELVIPEL"
  unit.annotation: "s⁻¹"
  koff: 0.044
- binder: "high affinity PDL-1 molecule L2F5 (ligand) FTVTVPKDLYVVEYGSNMTIECKFPVEKQLDLAALEVHWFMEDKNISSFVHGEEDLKVQHSSYRQRARLLKDQLSLGNAALQITDVKLQDAGVYRCMISYGGADYKRITVKVNAPYNKINQRILVVDPVTSEHELTCQAEGYPKAEVIWTSSDHQVLSGKTTTTNSKREEKLFNVTSTLRINTTTNEIFYCTFRRLDPEENHTAELVIPEL"
  unit.annotation: "s⁻¹"
  koff: 0.122
